assay: AP1 Signaling Pathway (AID 357); details: ME-180 (cervical carcinoma) AP-1-bla reporter, EGF-induced, beta-lactamase ratio, 5 h; at 7.69 µM (top of the series) unless noted;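 note: ME-180 reporter cells stimulated with EGF at its EC50 level; % is set by controls: 0 for no effect and ±100 for the full control effect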
Results filed as inconclusive are left out. Activity calls are given as the source filed them. Calls come from the whole dose curve; as a rule, active = well fitted curve in either direction with a large enough effect (not every such curve was filed as active); inconclusive = small, poorly fitted or top-dose-only effect, or another doubt; inactive = flat fitted curve, though single readings scatter.
readout.label: activity change, negative = inhibition

input: Look up activity change, negative = inhibition for this molecule: `Nc1ncnc2c1nc(Sc1ccc(Cl)cc1)n2[C@@H]1O[C@H]2COP(=O)(O)O[C@@H]2[C@H]1O`
output: 6.42% [at 38 µM] (inactive)

input: Look up activity change, negative = inhibition for this molecule: `CN(C)CCCCN1CCc2c(n(C)c3ccccc23)C1=O`
output: 14% (inactive)

input: Look up activity change, negative = inhibition for this molecule: `N[C@@H](CSC(=O)c1ccccc1)C(=O)O`
output: -5.26% (inactive)

input: Look up activity change, negative = inhibition for this molecule: `NC(N)=N/N=C\c1ccc(O)c(C(=O)O)c1`
output: 12.8% (inactive)

input: Look up activity change, negative = inhibition for this molecule: `Cc1[nH]n(-c2ccc(S(=O)(=O)O)cc2)c(=O)c1N=Nc1ccccc1`
output: -16.3% (inactive)

input: Look up activity change, negative = inhibition for this molecule: `CC(C)C(O)(C(C)C)C(C)C`
output: 7.29% (inactive)

input: Look up activity change, negative = inhibition for this molecule: `C[C@@H](COc1ccc(/C=C\c2ccccc2)cc1)[N+](C)(C)C`
output: -11.9% [at 38 µM] (inactive)

input: Look up activity change, negative = inhibition for this molecule: `C[C@H]1[C@H](C)CC[C@]2(C(=O)O)CC[C@]3(C)C(=CC[C@@H]4[C@]5(C)C[C@H](O)[C@@H](O)[C@@](C)(CO)[C@@H]5[C@H](O)C[C@@]43C)[C@H]12`
output: -6.13% (inactive)

input: Look up activity change, negative = inhibition for this molecule: `COc1cccc2[nH]c(-c3ccccn3)nc12`
output: -2.26% (inactive)

input: Look up activity change, negative = inhibition for this molecule: `Nc1nc(=O)c2[nH]cnc2n1O`
output: 10.1% (inactive)

====

Target: Cytochrome P450 1A2 (Homo sapiens) (UniProt P05177)
Sequence (P05177 whole entry, looked up): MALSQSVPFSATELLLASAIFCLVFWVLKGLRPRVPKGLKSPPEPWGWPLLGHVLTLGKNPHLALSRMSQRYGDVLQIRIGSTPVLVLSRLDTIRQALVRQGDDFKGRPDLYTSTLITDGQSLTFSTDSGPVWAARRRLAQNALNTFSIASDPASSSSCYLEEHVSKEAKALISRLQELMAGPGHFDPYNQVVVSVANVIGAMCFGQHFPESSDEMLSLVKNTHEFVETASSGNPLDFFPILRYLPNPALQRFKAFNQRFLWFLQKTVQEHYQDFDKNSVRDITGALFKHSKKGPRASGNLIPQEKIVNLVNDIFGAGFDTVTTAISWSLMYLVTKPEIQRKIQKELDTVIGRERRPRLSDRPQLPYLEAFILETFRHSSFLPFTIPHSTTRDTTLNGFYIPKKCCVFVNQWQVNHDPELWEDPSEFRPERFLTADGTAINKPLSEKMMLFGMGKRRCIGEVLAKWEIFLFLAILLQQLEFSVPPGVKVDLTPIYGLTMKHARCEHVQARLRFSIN
Experiment: p450-cyp1a2 (AID 410); note: potency is the fitted concentration of half-maximal effect
Settings: recombinant CYP1A2, luciferin-ME demethylation, luminescence; series mostly up to 11.4 µM
Description: The P450 gene superfamily is involved in metabolism and the clearance of xenobiotics. This assay used human CYP1A2 to measure the demethylation of luciferin 6' methyl ether (Luciferin-ME; Promega-Glo) to luciferin. The luciferin is then measured by luminescence after the addition of a luciferase detection regeant. Luciferin-ME concentration in the assay was equal to its Km for CYP1A2. NCGC Assay Protocol Summary: […]
Inconclusive results are not listed. Active and inactive are the calls of the source. The call rests on the fitted dose curve.
readout.label: Potency

Observe how each entry below is paired with its result.
N[C@@H](Cc1c[nH]c2ccc([N+](=O)[O-])cc12)C(=O)O; inactive
C[C@@]12CCC(=O)C=C1CC[C@H]1[C@H]3CC[C@](O)(C(=O)CO)[C@]3(C)CC[C@@H]12; inactive
Cn1ncc2c(NCCc3ccccc3)nc(Cl)nc21; 2510 nM (active)
c1ccc2cc(NCNc3ccc4ccccc4c3)ccc2c1; 631 nM (active)

Attention now turns to another entry.
input: Look up Potency for this compound: `O=C1c2ccccc2C(=O)N1CCCSc1ccccc1`
output: 1000 nM (active)

FYI, the data here is from PubChem BioAssay (NCATS).
